These data points were gathered from PubChem BioAssay (NCI).

Tested on: SF-539 CNS
Experiment: NCI-60 one-dose screen, 48 h (100 = growth as untreated, 0 = no growth, -100 = all killed)
Settings: 10 µM unless noted
The panel holds about 83,000 compounds, 20% with a hit somewhere; the sample as a whole holds those more often.
OBSERVED PROPERTY: growth (%)
# number only, unit % dropped from output

O=C(Nc1cccc2cccnc12)c1cc(C(=O)c2ccc(Cl)cc2)n2ccc(-c3ccncc3)cc12 | 99.7
COc1cc2c(=O)[nH]c3cc([N+](=O)[O-])ccc3c2cc1[N+](=O)[O-] | 45
COc1cc(NCc2ccccc2O)c2ncccc2c1 | 86
CN(C)C(=S)Sc1ccc([N+](=O)[O-])cc1[N+](=O)[O-] | 52.1

Next compound, please.
In: Determine from records and report growth for CC(C)C1=NOC(=O)C1=Cc1cn(-c2ccccc2)nc1-c1cccc([N+](=O)[O-])c1
Out: 98.1

====

Tested on: OVCAR-3 ovarian
Assay: NCI-60 one-dose screen, 48 h (100 = growth as untreated, 0 = no growth, -100 = all killed)
Conditions: 10 µM unless noted
Experimental: Growth inhibition of the OVCAR-3 human tumor cell line is measured as a screen for anti-cancer activity. Cells are grown in 96 well plates and exposed to the test compound for 48 hours. Compounds are tested at a single concentration, which is 10^-5 M for most compounds. The reported endpoint is percent growth (GI% or GIPRCNT), where numbers from 0 - 100% represent growth inhibition, and numbers from -100% - 0 represent cell death. For example, a value of 40 represents 60% growth inhibition. […]
This is part of a sample that, as a whole, favours compounds with a hit. Of some 83,000 tested, about 20% had one in any assay.
OBSERVED PROPERTY: growth (%)
# number only, unit % dropped from output

// below: answered molecules
Cn1ncc2c(Nc3ccc(O)cc3)nc(Cl)nc21 | 117
CCc1ccc(-c2ccc(COc3ccc(CC4SC(=O)NC4=O)cc3)cc2)cc1 (stereo not given) | 73.6
CCOc1ccc(S(=O)(=O)Nc2ccc3c(c2)N(S(=O)(=O)CC)CCC3)cc1 | 54.3
CC(C)C1=NOC(=O)C1=Cc1cn(-c2ccccc2)nc1-c1cccc([N+](=O)[O-])c1 | 89.3

In: Determine from records and report growth for COc1c(C(C)=O)c(OCCCCOc2c(C(C)=O)c(OC)c3ccoc3c2OC)c(OC)c2occc12
Out: 61.4

====

Each entry below carries its recorded growth.
System: HCT-116 colon
Test: NCI-60 one-dose screen, 48 h (100 = growth as untreated, 0 = no growth, -100 = all killed)
Conditions: 10 µM unless noted
About 83,000 compounds went through this panel and 20% of them were active in at least one assay; those are over-represented in the sample as a whole.
# number only, unit % dropped from output

// below: answered compounds
Nc1ccc(Cl)c([N+](=O)[O-])c1 | 97.7
CCN=Cc1c(O)c(O)c(C(C)C)c2cc(C)c(-c3c(C)cc4c(C(C)C)c(O)c(O)c(C=NCC)c4c3O)c(O)c12 | 22.5
O=C(O)c1ccccc1C(F)(F)F | 91.2
COc1ccc(/C=C(/C(=O)c2ccc(Cl)cc2)C(=O)C(F)(F)F)cc1 | 101
O=C(COc1cccc(/C=C2\Oc3ccccc3C2=O)c1)c1ccc([N+](=O)[O-])cc1 | 92.2
O=C1Nc2ccccc2/C1=C/C(=O)c1ccc(N2CCCC2)cc1 | 103
Oc1cc(Nc2ccnc3cc(Cl)ccc23)c2ncccc2c1 | 69.3

Next compound, please.
In: Determine from records and report growth for CN(C)Cc1ccc[nH]1
Out: 77.5

====

Test system: RXF 393 renal
Test: NCI-60 one-dose screen, 48 h
Settings: 10 µM unless noted
The panel holds about 83,000 compounds, 20% with a hit somewhere; the sample as a whole holds those more often. Calls of active or inactive are those of the source. How the source made its calls: active means growth percent below 10; inactive means the rest.
Write down the outcome that applies. Available outcomes: True for active, False for inactive

# count of solved cases: 3
O=c1[nH]c(CN2CCN(c3cccc(Cl)c3)CC2)nc2cc(Cl)ccc12 | False
O=C(O)c1cn(C2CC2)c2cc(N3CCN(Cc4c(O)ccc5ccccc45)CC3)c(F)cc2c1=O | True
CCCCCn1sc(=O)n(Cc2ccc(CNC(=O)OCc3ccc4cccc(O)c4n3)cc2)c1=O | True

Shift focus to the following entry.
In: Tell me the assay call for CC1=CC[C@@H]2C(C)(C)C(=O)CC[C@@]2(C)[C@@H]1COc1ccc2ccc(=O)oc2c1 please.
Out: False

====

Test system: SF-295 CNS
Assay: NCI-60 one-dose screen, 48 h
Settings: 10 µM unless noted
Experimental: Cells are grown in 96 well plates and exposed to the test compound for 48 hours. Compounds are tested at a single concentration, which is 10^-5 M for most compounds. The reported endpoint is percent growth (GI% or GIPRCNT), where numbers from 0 - 100% represent growth inhibition, and numbers from -100% - 0 represent cell death. For example, a value of 40 represents 60% growth inhibition. A value of 0 means no net growth occurred over the course of the experiment. […]
Compounds without any hit were thinned out: in the full panel of roughly 83,000, 20% have a hit. Active and inactive are the calls of the source. The calls were made as follows: active = growth percent below 10; inactive = the rest.
Write down the outcome that applies. Available outcomes: 1 = active, 0 = inactive

# count of solved cases: 10
CCOC(CNC(=O)c1cccc([N+](=O)[O-])c1)OCC | 0
O=C1CN(Cc2ccc(C(=O)NO)cc2)C(=O)[C@@H](Cc2ccccc2)N1 | 0
COc1cc(C(=O)/C=C/c2c(-c3ccc(F)cc3)nc3sccn23)cc(OC)c1OC | 1
Nc1nc(SCc2cccc([N+](=O)[O-])c2)c2[nH]cnc2n1 | 0
Cc1ccccc1OC(=O)c1cccc(Cl)c1 | 0
CC(C)(C)c1cc(C(=O)N2CCC(C(=O)NCCN)CC2)cc(C(C)(C)C)c1 | 0
O=C1NC(=O)C(Cc2ccccc2)(Cc2ccccc2)N1 | 0
CCN(CC)CCSC(=O)C(O)(c1ccccc1)C1CCCC1 (stereo not drawn) | 0
C[C@@H]1C[C@H]2C(=O)O[C@@H](C)[C@H](NC(=O)[C@H](Cc3cc(F)cc(F)c3)NC(=O)Nc3ccc(Cl)cc3F)C(=O)N3C[C@H](O)C[C@H]3C(=O)N3CCN(C)C[C@H]3C(=O)N[C@@H](C)C(=O)N2C1 | 0
CS(=O)(=O)c1cccnn1 | 0

In: Tell me the assay call for Nc1cc(N)c(N=Nc2ccc(S(=O)(=O)O)cc2)cc1N=Nc1ccc(-c2ccc(N=Nc3ccc(O)c(C(=O)O)c3)cc2)cc1 please.
Out: 0

In: Tell me the assay call for CCOC(=O)c1c[nH]c2cc(OCC3CC3)c(OCC3CC3)cc2c1=O please.
Out: 0

In: Tell me the assay call for CC(C)C1=NOC(=O)C1=Cc1cn(-c2ccccc2)nc1-c1ccc(Br)cc1 please.
Out: 0

In: Tell me the assay call for CCNC(=O)N1CCc2c(Cl)c3c(c(OC)c2[C@@H]1[C@H]1OCc2c1ccc(OC)c2OC)OCCO3 please.
Out: 1

====

Each entry below carries its recorded growth.
System: ACHN renal
Assay: NCI-60 one-dose screen, 48 h (100 = growth as untreated, 0 = no growth, -100 = all killed)
Details: 10 µM unless noted
The panel holds about 83,000 compounds, 20% with a hit somewhere; the sample as a whole holds those more often.
# number only, unit % dropped from output

Cc1ccc(S(=O)(=O)N/N=C2\CC3CCC2(C)C3(C)C)cc1 (centres undefined) | 102
CC(C)c1ccc(/C=N/N=C(N)N)cc1 | 83.2
Cc1ncc(C(=O)Nc2ccc(CN3CCN(C)CC3)c(C(F)(F)F)c2)cc1C#Cc1c(N)ncc2ccc(C#N)cc12 | 12.3

In: Determine from records and report growth for CC(C)C1=NOC(=O)C1=Cc1cn(-c2ccccc2)nc1-c1ccc(Cl)cc1
Out: 82.6

====

Tested on: UACC-257 melanoma
Assay: NCI-60 one-dose screen, 48 h
Conditions: 10 µM unless noted
About 83,000 compounds went through this panel and 20% of them were active in at least one assay; those are over-represented in the sample as a whole. Active and inactive are the calls of the source. The calls were made as follows: active = growth percent below 10; inactive = the rest.
Write down the outcome that applies. Available outcomes: active, inactive

O=C(Nc1cc(F)cc2cccnc12)c1cnc(N2CCNCC2)cn1 | inactive
CCCc1cc2cc(-n3nc(C)c4c3CC(C)(C)CC4=O)cc(NC3CCSCC3)c2c(=O)[nH]1 | inactive
CCOC(=O)c1cnc2ccc(Br)cc2c1Nc1cccc(S(N)(=O)=O)c1 | inactive
O=C(Oc1ccc(Cl)cc1[N+](=O)[O-])Oc1ccc(Cl)cc1[N+](=O)[O-] | inactive

In: Tell me the assay call for Cc1nc(Cl)cc(N(c2cc(Cl)nc(C)n2)c2ncc(C(=O)Nc3c(C)cccc3Cl)s2)n1 please.
Out: inactive

In: Tell me the assay call for O=C1COCCN1c1ccc(NCc2cn(Cc3cccc4ccccc34)c3ccccc23)cc1 please.
Out: inactive

In: Tell me the assay call for CCOc1ccc2sc(NS(=O)(=O)c3ccc(N)cc3)nc2c1 please.
Out: inactive

In: Tell me the assay call for COc1ccc2c(c1)C(C)Cc1c(Cl)nc(C)nc1N2C (centres undefined) please.
Out: inactive

In: Tell me the assay call for CC(C)[C@H]1CCC2=C3CC[C@]45OC(=O)[C@@]6(CCC(C)(C)C[C@H]64)CC[C@@]5(C)[C@]3(C)CC[C@@]21C please.
Out: inactive

In: Tell me the assay call for CC1=CC[C@@H]2C(C)(C)[C@@H](O)CC[C@@]2(C)[C@@H]1COc1ccc2ccc(=O)oc2c1 please.
Out: inactive

In: Tell me the assay call for CNc1cc(C(=O)O)nc(NC)n1 please.
Out: inactive
